# Tested on: 2-phenyl-1,4-quinone-induced writhing
# protocol_summary: 2-phenyl-1,4-quinone-induced writhing assay (analgesia)
# Type: in vivo
# test_conditions: 50 mg/kg of body weight oral dose, mice
property_measured: inhibition of writhing (%)

compound="O=C(ON1CCC2(CC1)OC(c1ccccc1)c1ccccc12)c1ccccc1 (centres unmarked)" system_tested="2-phenyl-1,4-quinone-induced writhing" property_measured="inhibition of writhing" recorded_measurement=54
compound="ON1CCC2(CC1)OC(c1ccccc1)c1ccccc12 (centres unmarked)" system_tested="2-phenyl-1,4-quinone-induced writhing" property_measured="inhibition of writhing" recorded_measurement=53
compound="NN1CCC2(CC1)OC(c1ccccc1)c1ccccc12 (centres unmarked)" system_tested="2-phenyl-1,4-quinone-induced writhing" property_measured="inhibition of writhing" recorded_measurement=53
compound="CC(C)NN1CCC2(CC1)OC(c1ccccc1)c1ccccc12 (centres unmarked)" system_tested="2-phenyl-1,4-quinone-induced writhing" property_measured="inhibition of writhing" recorded_measurement=27
compound="[O-][N+]1(Cc2ccccc2)CCC2(CC1)OC(c1ccccc1)c1ccccc12 (centres unmarked)" system_tested="2-phenyl-1,4-quinone-induced writhing" property_measured="inhibition of writhing" recorded_measurement=48

Provenance of the data: patent US4024263A
